# System: PBMCs
# Test Description: Cytotoxicity in PBMCs (anti-HIV tests)
# Format: cell-based
Quantity Kind: HIVROJO (PBMCs) CC50 (µg/mL)
One number for each entry, in µg/mL.

O=C(NCCc1c[nH]c2ccccc12)C1=Cc2ccncc2CC1 [#68] :: 7.1

Query :: Using the record for CCCOc1ccccc1CNC(=O)c1ccc2cnccc2n1 [#26] , state its measured HIVROJO (PBMCs) CC50.
Result :: 6.0

* * *

Hi there, I'd appreciate the recorded INFLUENZA A CC50 for every entry that follows.
# Tested on: uninfected cells
# Test Description: Cytotoxicity run with the Influenza A test
# Format: cell-based
Answers are plain numbers, in µg/mL.

CC(C)Oc1ccccc1NC(=O)Nc1ccc2cnccc2n1 [#46] :: 19
COc1ccccc1CNC(=O)C1=Cc2ccncc2CC1 [#32] :: 67
O=C(NCCc1c[nH]c2ccccc12)C1=Cc2ccncc2CC1 [#68] :: 2.1

Query :: Supply measured INFLUENZA A CC50 of CCCOc1ccccc1CNC(=O)c1ccc2cnccc2n1 [#26] in your reply.
Result :: 5.6
